- Test system: Plasmodium falciparum
- Test name: NOVARTIS: Inhibition of Plasmodium falciparum 3D7 (drug-susceptible) proliferation in erythrocyte-based infection assay
- Assay type: functional, organism-based
- Assay context: Plasmodium falciparum, 3D7
The label MET is reserved for EC50 strictly under 400 nM; NOT MET covers values equal to or above it.

Illustrative cases are given below, each with its answer.
Cc1ccc2nc(C)cc(NCCN(C)C)c2c1
MET
Cc1cc(C)cc(NC2=C(N)C(=O)c3ccccc3C2=O)c1
NOT MET
CCn1c(SCCCCNC(=O)c2cc([N+](=O)[O-])cc([N+](=O)[O-])c2)nc(-c2ccc(C)cc2)c1-c1ccc(C)cc1
NOT MET
Cc1ccc(NC(=O)c2sc3nc4c(c(-c5ccc(C)cc5)c3c2N)CCC4)cc1
NOT MET
O=C(CSc1oc(-c2ccc(Cl)cc2)nc1[P+](c1ccccc1)(c1ccccc1)c1ccccc1)c1ccccc1
NOT MET

Check if EC50 falls below 400 nM for `COc1ccc(Nc2nc(NN=Cc3cccc([N+](=O)[O-])c3OC)nc(Nc3ccc([N+](=O)[O-])cc3)n2)cc1` .
MET

Check if EC50 falls below 400 nM for `COC(=O)c1ccc(C=NNc2cc(C)nc3ccc(OC)cc23)cc1` .
MET

Check if EC50 falls below 400 nM for `C[n+]1c(/C=C\c2ccc(F)cc2)ccc2ccccc21` .
MET

Check if EC50 falls below 400 nM for `CC(=O)Nc1ccc(NS(=O)(=O)c2cc([N+](=O)[O-])ccc2Cl)cc1` .
NOT MET
